// reported inhibition for each item listed
Target: Toll-like receptor 4 (Homo sapiens) + Myeloid differentiation primary response protein MyD88 (Homo sapiens) (UniProt O00206+Q99836)
Sequence (O00206 whole entry, looked up): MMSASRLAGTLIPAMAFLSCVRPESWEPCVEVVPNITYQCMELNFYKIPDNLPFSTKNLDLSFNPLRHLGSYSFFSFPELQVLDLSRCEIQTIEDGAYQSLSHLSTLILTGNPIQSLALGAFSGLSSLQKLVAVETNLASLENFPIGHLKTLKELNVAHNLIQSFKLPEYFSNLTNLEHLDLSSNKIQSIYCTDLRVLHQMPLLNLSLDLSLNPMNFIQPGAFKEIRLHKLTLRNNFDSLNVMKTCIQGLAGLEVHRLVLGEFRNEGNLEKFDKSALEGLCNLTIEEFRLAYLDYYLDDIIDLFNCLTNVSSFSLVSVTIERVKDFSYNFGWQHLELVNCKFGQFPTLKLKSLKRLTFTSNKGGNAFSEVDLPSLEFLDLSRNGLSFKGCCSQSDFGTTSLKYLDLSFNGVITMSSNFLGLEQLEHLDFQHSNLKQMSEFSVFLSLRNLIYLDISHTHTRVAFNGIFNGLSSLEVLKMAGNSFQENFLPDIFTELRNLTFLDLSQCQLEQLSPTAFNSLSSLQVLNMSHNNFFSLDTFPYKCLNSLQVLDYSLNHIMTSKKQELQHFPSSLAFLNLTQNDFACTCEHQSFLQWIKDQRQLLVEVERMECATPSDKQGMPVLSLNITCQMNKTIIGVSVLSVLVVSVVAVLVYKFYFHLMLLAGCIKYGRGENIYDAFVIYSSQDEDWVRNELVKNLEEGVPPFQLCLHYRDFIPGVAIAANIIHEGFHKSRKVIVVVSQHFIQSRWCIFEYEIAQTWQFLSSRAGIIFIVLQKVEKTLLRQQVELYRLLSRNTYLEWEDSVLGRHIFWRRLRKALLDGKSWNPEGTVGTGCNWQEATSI
Sequence (Q99836 whole entry, looked up): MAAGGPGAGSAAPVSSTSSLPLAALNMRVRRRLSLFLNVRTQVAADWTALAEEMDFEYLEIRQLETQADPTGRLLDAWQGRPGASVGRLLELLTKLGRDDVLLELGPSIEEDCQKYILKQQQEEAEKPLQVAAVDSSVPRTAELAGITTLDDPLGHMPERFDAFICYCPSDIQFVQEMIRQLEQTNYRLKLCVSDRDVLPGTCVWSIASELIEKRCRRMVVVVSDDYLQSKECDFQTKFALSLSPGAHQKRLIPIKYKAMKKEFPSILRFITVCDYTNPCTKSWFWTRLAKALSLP
Test: disruptors of TLR4 binding to MyD88 – cell-based, HeLa CL3-4, BLA complementation, FRET ratio, primary screen (AID 861);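 also: 0% = vehicle and 100% = reference inhibitor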
Conditions: HeLa CL3-4 TLR4/MyD88 BLA complementation, at 8.4 µM, hits give high values
Screen size: about 200,000 compounds; about 360 (0.18%) were called active. The list comes from a sample in which actives are over-represented; it also holds close analogues and randomly drawn compounds.

>  <compound>
CC(Sc1nc2c([nH]c3ccccc32)c(=O)n1C)c1ccccc1 (stereo not drawn)

>  <inhibition>
8.9% (inactive)

$$$$

For reference, reported inhibition for COCCNC(=O)NC(=O)COC(=O)C1(c2ccc(Cl)cc2)CC1 stands at 1.43% (inactive)

For reference, reported inhibition for CCN1CCC2(CCN(Cc3cn[nH]c3-c3ccc(OC)c(F)c3)C2)C1 (stereo not drawn) stands at -1.36% (inactive)

For reference, reported inhibition for CCC1C(=O)c2ccccc2N(C)C1=O (stereo not drawn) stands at 3.79% (inactive)

For reference, reported inhibition for CC1CCN(C(=O)c2ccc(CSc3ccc(Cl)cc3)cc2)CC1 stands at 2.08% (inactive)

For reference, reported inhibition for Nc1nc(SCC(=O)NCCN2CCOCC2)nc2sc3c(c12)CCC3 stands at 4.71% (inactive)

For reference, reported inhibition for Cc1ccc(NC(=O)c2ccccn2)cc1S(=O)(=O)N1CCOCC1 stands at -12.9% (inactive)

For reference, reported inhibition for Cc1cccc2cc(CN(Cc3cccs3)C(=S)NCc3ccco3)c(=O)[nH]c12 stands at 6.03% (inactive)

For reference, reported inhibition for CC(=O)c1cc(C#N)c(N2CCCCC2)nc1C stands at 7.39% (inactive)

For reference, reported inhibition for C=CCN(CC=C)CCOc1ccccc1[N+](=O)[O-] stands at 9.15% (inactive)

For reference, reported inhibition for CC(=O)C1C(c2ccc(Cl)cc2)c2c(n[nH]c2C)CC1(C)O (stereo not drawn) stands at -3.07% (inactive)

For reference, reported inhibition for CC1CCN(C(=S)c2cccc(O)c2)CC1 stands at -6.27% (inactive)

For reference, reported inhibition for COC(=O)c1nc2n(n1)C(c1ccc([N+](=O)[O-])cc1)C(C(=O)Nc1ccc(Cl)cc1)=C(C)N2 (stereo not drawn) stands at 4.62% (inactive)

For reference, reported inhibition for CC(=O)Nc1ccc(S(=O)(=O)NC(C)C(=O)OCC(=O)NC2CCCC2)cc1 (stereo not drawn) stands at -2.35% (inactive)

For reference, reported inhibition for CN(CCC1CCOCC1)Cc1cn[nH]c1-c1ccc(-c2ccccc2)cc1 stands at -6.36% (inactive)

For reference, reported inhibition for CCC(=O)NC(=Nc1nc2ccccc2s1)NC(=O)CC stands at -5.21% (inactive)
